MOLECULE	melting point
CCOC(Cc1ccc(OCCn2c(=O)sc3cc(/C(=N/OC)c4ccccc4)ccc32)cc1)C(=O)O (stereo not shown) [Compound 40a]	151 to 152 °C
CCOC(Cc1ccc(OCCn2c(=O)sc3ccc(C(=O)c4ccccc4)cc32)cc1)C(=O)O (stereo not shown)	49 to 51 °C
CCO[C@@H](Cc1ccc(OCCn2c(=O)sc3cc(/C(=N/OC)c4ccccc4)ccc32)cc1)C(=O)O [Compound 44a]	151 to 152 °C
CCO[C@H](Cc1ccc(OCCn2c(=O)sc3cc(/C(=N/O)c4ccccc4)ccc32)cc1)C(=O)O [Compound 45a]	84 to 85 °C
CCOC(Cc1ccc(OCCn2c(=O)sc3cc(C(=O)c4ccccc4)ccc32)cc1)C(=O)O (stereo not shown) [Compound 32a]	57 to 59 °C
CCOC(Cc1ccc(OCCN2C(=O)Cc3cc(C(=O)c4ccccc4)ccc32)cc1)C(=O)O (stereo not shown)	68 to 70 °C
CCO[C@@H](Cc1ccc(OCCn2c(=O)sc3cc(/C(=N/O)c4ccccc4)ccc32)cc1)C(=O)O [Compound 43a]	84 to 85 °C

###

Overview of reported Emax across a group of compounds:
SYSTEM NAME: human PPARγ (Homo sapiens, UniProt P37231)
Construct: expressed in transfected cells; host or cells: Cos-7
Sequence (P37231 238-503 limits assumed): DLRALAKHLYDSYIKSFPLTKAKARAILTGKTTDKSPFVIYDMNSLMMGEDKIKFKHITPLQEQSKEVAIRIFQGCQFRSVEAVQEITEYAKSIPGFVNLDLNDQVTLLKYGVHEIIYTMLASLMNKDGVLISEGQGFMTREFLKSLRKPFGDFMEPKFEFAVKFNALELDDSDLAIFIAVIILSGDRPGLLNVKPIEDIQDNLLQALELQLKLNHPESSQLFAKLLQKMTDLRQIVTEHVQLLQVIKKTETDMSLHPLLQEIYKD
PROTOCOL DETAILS: Gene reporter (transactivation) assay, Cos-7 cells transfected with pGal4-hPPARγ;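 further: luciferase reporter (pG5-TK) activity normalised to cotransfected β-galactosidase, cells exposed to increasing compound concentrations in DMEM with 0.2% FCS, DMSO vehicle as control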
Type: cell-based
STATED CONDITIONS: COS-7, 24 h, Emax relative to maximum activation with rosiglitazone (1 μM) = 100%; Cos-7 cells, 24 h; read-out: hPPAR gene reporter γGal4 (%)

COMPOUND	SYSTEM NAME	READOUT UNIT	LIMIT OPERATOR	Emax
CCO[C@H](Cc1ccc(OCCn2c(=O)sc3cc(/C(=N/OC)c4ccccc4)ccc32)cc1)C(=O)O [Compound 46a]	human PPARγ (Homo sapiens, UniProt P37231)	%	=	87
CCOC(Cc1ccc(OCCN2C(=O)CSc3ccc(C(=O)c4ccccc4)cc32)cc1)C(=O)O (stereo not shown)	human PPARγ (Homo sapiens, UniProt P37231)	%	≤	70
CCO[C@H](Cc1ccc(OCCn2c(=O)sc3cc(C(=O)c4ccccc4)ccc32)cc1)C(=O)O [Compound 42a]	human PPARγ (Homo sapiens, UniProt P37231)	%	=	39
CCOC(Cc1ccc(OCCN2C(=O)COc3ccc(C(=O)c4ccccc4)cc32)cc1)C(=O)O (stereo not shown)	human PPARγ (Homo sapiens, UniProt P37231)	%	>	100
CCOC(Cc1ccc(OCCn2c(=O)sc3cc(/C(=N/O)c4ccccc4)ccc32)cc1)C(=O)O (stereo not shown) [Compound 39a]	human PPARγ (Homo sapiens, UniProt P37231)	%	=	91
CCO[C@@H](Cc1ccc(OCCn2c(=O)sc3cc(/C(=N/O)c4ccccc4)ccc32)cc1)C(=O)O [Compound 43a]	human PPARγ (Homo sapiens, UniProt P37231)	%	=	123
CCO[C@@H](Cc1ccc(OCCn2c(=O)sc3cc(C(=O)c4ccccc4)ccc32)cc1)C(=O)O [Compound 41a]	human PPARγ (Homo sapiens, UniProt P37231)	%	=	142
CCOC(Cc1ccc(OCCN2C(=O)CSc3cc(C(=O)c4ccccc4)ccc32)cc1)C(=O)O (stereo not shown)	human PPARγ (Homo sapiens, UniProt P37231)	%	=	97
CON=C(c1ccccc1)c1ccc2c(c1)sc(=O)n2CCOc1ccc(CC(OCC(F)(F)F)C(=O)O)cc1 (racemic) [Compound 40b]	human PPARγ (Homo sapiens, UniProt P37231)	%	=	95
CCOC(Cc1ccc(OCCn2c(=O)sc3cc(/C(=N/OC)c4ccccc4)ccc32)cc1)C(=O)O (stereo not shown) [Compound 40a]	human PPARγ (Homo sapiens, UniProt P37231)	%	=	87
